The measured values listed here are drawn from patent US20120282269A1.

Form field: IC50, inhibition of IL-17 production from IL-23 stimulated mouse splenocytes (one value per entry).
# Tgt: T1, natural human IL-23 from activated THP-1 cells (human, UniProt P29460 23-328)
# T1 sequence 1: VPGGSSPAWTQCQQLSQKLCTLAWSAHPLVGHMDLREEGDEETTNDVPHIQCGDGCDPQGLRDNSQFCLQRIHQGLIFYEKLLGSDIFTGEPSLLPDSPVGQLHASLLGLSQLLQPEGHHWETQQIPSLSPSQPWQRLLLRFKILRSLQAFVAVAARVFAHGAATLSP
# T1 sequence 2: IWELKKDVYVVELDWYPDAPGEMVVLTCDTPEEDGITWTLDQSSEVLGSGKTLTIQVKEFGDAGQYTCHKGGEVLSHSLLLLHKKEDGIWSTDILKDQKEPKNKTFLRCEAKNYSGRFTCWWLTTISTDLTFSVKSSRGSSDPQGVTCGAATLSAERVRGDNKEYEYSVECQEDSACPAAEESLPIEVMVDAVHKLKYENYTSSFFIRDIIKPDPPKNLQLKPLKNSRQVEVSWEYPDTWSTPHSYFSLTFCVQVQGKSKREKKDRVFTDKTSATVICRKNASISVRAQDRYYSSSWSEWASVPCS
# Protocol: cell-based or functional assay

Example binders with recorded IC50, inhibition of IL-17 production from IL-23 stimulated mouse splenocytes:
Binder	Endpoint value
15C11 (antibody, V domains shown) VH: EVQLQQSGPVLVKPGASVKMSCKASGYTFTDYYMNWVKQSHGKSLEWIGVIIPYNGGTSYNQKFKGKATLTVDKSSSTAYMELNSLTSEDSAVYYCARDGHRWYFDVWGTGTTVTVSS VL: DVVMTQTPLSLPVSLGDQASISCRSSQSLVHSNGNTYLHWYLQKPGQSPKLLIYKVSNRFSGVPDRFSGSGSGTDFTLKINRVEAEDLGVYFCSQSTHVPYTFGGGTQLEIK	0.232 nM
Antibody A (antibody, human IgG1, kappa, L234A L235A, V domains shown) VH: QVQLVQSGAEVKKPGSSVKVSCKASGYTFTDQTIHWMRQAPGQGLEWIGYIYPRDDSPKYNENFKGKVTITADKSTSTAYMELSSLRSEDTAVYYCAIPDRSGYAWFIYWGQGTLVTVSS VL: DIQMTQSPSSLSASVGDRVTITCKASRDVAIAVAWYQQKPGKVPKLLIYWASTRHTGVPSRFSGSGSRTDFTLTISSLQPEDVADYFCHQYSSYPFTFGSGTKLEIKR	0.001 nM

Sample 43F5 (antibody, V domains shown) VH: EVQLQQSGPELVKPGASVKISCRASGYSFTGYYMNWVKQSPEKSLEWIGEIIPTTGGTSYNQKFKAKATLTVDKSSSTAYMQLKSLTSEDSAVYYCARESGGFYWYFDVWGTGTTVTVSS VL: DVVMTQSPLSLPVSLGDQASISCRSSQSLVHSNGNTYLHWYLLKPGQSPKLLIYKVSNRFSGVPDRFSGSGSGTDFTLKISRVEAEDLGVYFCSQSTHVPYTFGGGTKLEIK — what was its IC50, inhibition of IL-17 production from IL-23 stimulated mouse splenocytes? 8 nM
